Entry source: the Kinase Knowledgebase extract (Sharma et al. 2016)

pIC50: −log10 of the molar value.
Here we list compounds with their recorded pIC50 when tested on PIK3CG (human).

- molecule-smiles: "C[C@H](Nc1nc(N)nc2[nH]cnc12)c1cc2cccc(-c3cnn(C)c3)c2c(=O)n1-c1ccccc1"
  pIC50: "> 7.00"
- molecule-smiles: "Cc1ccc(-c2cccc3cc([C@H](C)Nc4nc(N)nc5[nH]cnc45)n(-c4ccccc4)c(=O)c23)cn1"
  pIC50: "> 7.00"
- molecule-smiles: "C[C@H](Nc1ncnc2[nH]cnc12)c1cc2cccc(-c3cc[nH]n3)c2c(=O)n1-c1ccccc1"
  pIC50: "> 7.00"
- molecule-smiles: "C[C@H](Nc1ncnc2[nH]cnc12)c1cc2cccc(-c3ccncc3)c2c(=O)n1-c1ccccc1"
  pIC50: "> 7.00"
- molecule-smiles: "C[C@H](Nc1ncnc2[nH]cnc12)c1cc2cccc(-c3cnn(C)c3)c2c(=O)n1-c1ccccc1"
  pIC50: "> 7.00"
- molecule-smiles: "C[C@H](Nc1ncnc2[nH]cnc12)c1cc2cccc(-c3cn[nH]c3)c2c(=O)n1-c1ccccc1"
  pIC50: "6.00 to 7.00"
- molecule-smiles: "C[C@H](Nc1nc(N)ncc1Cl)c1cc2cccc(-c3cnn(C)c3)c2c(=O)n1-c1ccccc1"
  pIC50: "6.00 to 7.00"
- molecule-smiles: "C=Cc1cccc2cc([C@H](C)Nc3ncnc4[nH]cnc34)n(-c3ccccc3)c(=O)c12"
  pIC50: "> 7.00"
- molecule-smiles: "C[C@H](Nc1ncnc2[nH]cnc12)c1cc2cccc(N3CCN(C)CC3)c2c(=O)n1-c1ccccc1"
  pIC50: "< 5.00"
- molecule-smiles: "C[C@H](Nc1nc(N)ncc1C(F)(F)F)c1cc2cccc(-c3cnn(C)c3)c2c(=O)n1C1CC1"
  pIC50: "> 7.00"
- molecule-smiles: "C[C@H](Nc1ncnc2[nH]cnc12)c1cc2cccc(-c3cnn(C)c3)c2c(=O)[nH]1"
  pIC50: "< 5.00"
- molecule-smiles: "C[C@H](Nc1ncnc2[nH]cc(C(N)=O)c12)c1cc2cccc(-c3cnn(C)c3)c2c(=O)n1-c1ccccc1"
  pIC50: "> 7.00"
